The entries below come with measured solubility values attached.
# Measurement protocol: Solubility in PBS
# Assay type: physicochemical
# Assay setup: aqueous buffer

Observe how each entry below is paired with its result.
O=C(NC(c1ccc(F)cc1)c1ccccn1)C1CCN(CCOc2ccccc2F)CC1 (centres unmarked) : > 500 µM
O=C(NC(c1ccc(Cl)cc1)c1ccccn1)C1CCN(CCCc2ccccc2)CC1 (centres unmarked) : 352 µM

Query block: Record request: solubility value, item O=C(NC(c1ccc(F)cc1)c1ccc(Cl)cc1)C1CCN(CCOc2ccccc2)CC1 (centres unmarked)
Result block: < 0.1 µM

Query block: Report solubility for O=C(NC(c1ccc(Cl)cc1)c1ccccc1F)C1CCN(CCOc2ccccc2)CC1 (centres unmarked) please.
Result block: 0.4 µM

Query block: Returns the measured solubility for the input molecule. Input: O=C(NC(c1cccc(C(F)(F)F)c1)c1ccccn1)C1CCN(CCOc2ccccc2)CC1 (centres unmarked)
Result block: 151 µM

Query block: Using the record for COc1cccc(C(NC(=O)C2CCN(CCOc3ccccc3)CC2)c2ccccn2)c1 (centres unmarked) , report its solubility.
Result block: 441 µM

----------
# IC50 per entry
# Target system: human D2R/β-arrestin (Homo sapiens (Human))
# Assay setup: read-out: cAMP Antagonist

Field: example entries. Status: answers known.
COc1cccc(C(NC(=O)C2CCN(CCOc3ccccc3)CC2)c2ccccn2)c1 (stereo not drawn) [Compound 35a] : 10 to 30 µM
O=C(NC(c1cccc(OC(F)(F)F)c1)c1ccccn1)C1CCN(CCOc2ccccc2)CC1 (single isomer, unassigned) [Compound 118a] : > 30 µM
O=C(NC(c1ccc(Cl)cc1)c1ccccn1)C1CCN(CCOc2cc(F)ccc2F)CC1 (single isomer, unassigned) [Compound 14a] : > 30 µM
O=C(NC(c1ccc2c(c1)OC(F)(F)O2)c1ccccn1)C1CCN(CCOc2ccccc2)CC1 (single isomer, unassigned) [Compound 119a] : 1 to 10 µM
O=C(NC(c1ccc(Cl)cc1)c1ccccn1)C1CCN(CCOc2ccccc2F)CC1 (single isomer, unassigned) [Compound 3b] : > 30 µM

Query block: Record request: IC50 value, item O=C(NC(c1ccc(Cl)cc1)c1ccccn1)C1CCN(CCOc2cccc(F)c2)CC1 (single isomer, unassigned) [Compound 4a]
Result block: > 30 µM

----------
# Target system: human D2R/β-arrestin (Homo sapiens (Human), UniProt P14416)
# Sequence (P14416 whole entry): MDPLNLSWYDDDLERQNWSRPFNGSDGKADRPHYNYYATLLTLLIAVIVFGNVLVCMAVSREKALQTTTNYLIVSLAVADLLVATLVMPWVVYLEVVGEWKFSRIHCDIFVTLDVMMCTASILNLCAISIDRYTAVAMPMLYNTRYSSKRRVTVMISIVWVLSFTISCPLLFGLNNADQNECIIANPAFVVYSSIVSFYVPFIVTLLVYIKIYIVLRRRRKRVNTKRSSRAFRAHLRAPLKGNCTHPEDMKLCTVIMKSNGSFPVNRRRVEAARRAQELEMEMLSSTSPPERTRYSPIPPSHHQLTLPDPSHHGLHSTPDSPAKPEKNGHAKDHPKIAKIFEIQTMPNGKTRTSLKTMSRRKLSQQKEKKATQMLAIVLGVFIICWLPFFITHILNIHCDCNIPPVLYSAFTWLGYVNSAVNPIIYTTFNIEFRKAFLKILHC
# Measurement protocol: Gi/cAMP agonist assay (Lance Ultra cAMP, Forskolin)
# Format: cell-based
# Assay setup: CHO-K1 cell line expressing human D2R/β-arrestin
# Experimental: The assays can be performed using proper detection reagents either prepared using routine methods known in the art or commercially available (e.g., PE Lance Ultra cAMP kit (TRF0263)). Cells are grown to the necessary confluence and then detached. The cells are then centrifuged, washed, resuspended, and seeded into a container (e.g., 384-well plate). […] Read-out (e.g., luminescence, or fluorescence) is detected using standard equipment. […]
pEC50: −log10 of the molar value.
# pEC50 listing for each entry below

O=C(NC(c1ccc(Cl)cc1)c1ccccn1)C1CCN(CCOc2ccc(F)cc2)CC1 (stereo not drawn) : 4.52 to 5.00
O=C(NC(c1ccc(Cl)cc1)c1ccccn1)C1CCN(CCn2ccc(=O)cc2)CC1 (stereo not drawn) [Compound 11] : < 4.52
COc1cccc(C(NC(=O)C2CCN(CCOc3ccccc3)CC2)c2cocn2)c1 (stereo not drawn) : 5.00 to 6.00

Query block: Would you kindly share the measured pEC50 for COc1cccc(C(NC(=O)C2CCN(CCOc3ccccc3F)CC2)c2ccccn2)c1 (single isomer, unassigned) [Compound 22a] ?
Result block: 4.52 to 5.00

Query block: Param item = COc1cccc(C(NC(=O)C2CCN(CCOc3ccccc3)CC2)c2ccccn2)c1 (stereo not drawn) [Compound 35] ; retrieve measured pEC50.
Result block: 5.00 to 6.00

Query block: Looking for the measured pEC50 of O=C(NC(c1ccc2c(c1)OC(F)(F)O2)c1ccccn1)C1CCN(CCOc2ccc(F)cc2F)CC1 (single isomer, unassigned) [Compound 130b] , can you help?
Result block: > 7.00

Query block: I would be grateful if you could share the reported pEC50 for O=C(NC(c1ccc(Cl)cc1)c1ccccn1)C1CCN(CCOc2ccccc2)CC1 (stereo not drawn) [Compound 63] .
Result block: 6.00 to 7.00

Query block: What value of pEC50 has been recorded for this entry: Fc1ccccc1OCCN1CCC(CNC(c2ccc3c(c2)OCO3)c2ccccn2)CC1 (single isomer, unassigned) [Compound 139a]
Result block: > 7.00
